cytotoxicity at 10 µM overview
protocol_details: Toxicity liver stage against HepG2, at 10uM
Format: cell-based
Design: test concentration 10 uM, cell line HepG2-A16-CD81EGFP
assay_context: human, HepG2-A16-CD81EGFP cells; read-out: INHIBITION
API: value field is a number in %; no unit string.

{"columns": ["compound", "experimental_readout", "quantitative_readout"],
 "data": [
  ["CCOc1ccc(CC(CNC(=O)c2sccc2C)C(N)=O)cc1 (configuration not stated)", "cytotoxicity at 10 µM", -4.18],
  ["CCS(=O)(=O)N1CCn2cc(CN(C)Cc3ccco3)nc2C1", "cytotoxicity at 10 µM", -74.4],
  ["O=c1[nH]cccc1-c1nccc(C2(c3ccccc3Cl)CCNCC2)n1", "cytotoxicity at 10 µM", -6.27],
  ["Cc1noc(NCc2ccc(F)cc2)n1", "cytotoxicity at 10 µM", -5.92],
  ["N[C@H]1CN(C(=O)c2ccc(Cl)cc2F)C[C@@H]1C1CC1", "cytotoxicity at 10 µM", -44.3]
]}

Recorded cytotoxicity at 10 µM for `Cc1cc(C(=O)NCc2cccn2C)nn1C` , please? 1.21

Recorded cytotoxicity at 10 µM for `COc1cc(CNC(=O)c2cc(S(C)(=O)=O)ccc2C)ccn1` , please? -1.65
